test system: L1210 leukemia ip in BDF1 mice, survival T/C; experiment: NCI In Vivo Anticancer Drug Screen. Data for tumor model L1210 Leukemia (intraperitoneal) in B6D2F1 (BDF1) mice; conditions: endpoint: mean survival time; dose: 100.0 mg/kg/injection; schedule: Q01DX001 (ip); vehicle: saline; higher = longer survival
Toxic doses and inconclusive results are not listed.
measured.property: T/C

What value of T/C has been recorded for this entry: O=c1cc2ccccc2c(O)[nH]1
114 % of control

Here is the next compound: CCOC(=O)C(OC(=O)c1ccccc1)C(OC(=O)c1ccccc1)C(=O)OCC (stereo unspecified)
102 % of control

Here is the next compound: CCOC(=O)/C(=C/c1ccc(OC)cc1)P(=O)(OCC)OCC
91 % of control

Here is the next compound: N#Cc1ccc(S(=O)(=O)N=C(N)N)cc1
100 % of control

Here is the next compound: C(=N\N1CCN(/N=C/c2cccc(OCc3ccccc3)c2)CC1)/c1cccc(OCc2ccccc2)c1
96 % of control

Here is the next compound: O=[N+]([O-])c1ccc(N=Nc2c3ccccc3c(O)n2CO)c([N+](=O)[O-])c1
97 % of control

Here is the next compound: NC(CCCCN=Cc1ccccc1O)C(=O)O (stereo unspecified)
95 % of control

Here is the next compound: Cc1cc(C)c(O)c(CN(Cc2cc(C)cc(C)c2O)C2CCCCC2)c1
96 % of control

Here is the next compound: OCC1OC(n2cnc3cncnc32)CC1O (stereo unspecified)
103 % of control

Here is the next compound: Cc1ccc([P+](=O)O)cc1Cl
100 % of control

Here is the next compound: CC1(C)c2ccccc2N(CCCN)c2ccccc21
106 % of control

Here is the next compound: OC(COc1ccccc1)CN1CCN(c2cccc(Cl)c2)CC1 (stereo unspecified)
97 % of control

Here is the next compound: Cc1cc(Cc2cc(C)c(N)cc2N)c(N)cc1N
88 % of control

Here is the next compound: CN(C)NP(=O)(c1ccccc1)c1ccccc1
98 % of control

Here is the next compound: O=c1[nH]c(/C=C/c2ccc(Cl)cc2)nc(O)c1-c1ccc(Cl)cc1
104 % of control

Here is the next compound: COS(=O)(=O)c1ccc[n+](C)c1
105 % of control

Here is the next compound: O=C(CC(c1ccccc1)N1CCCCC1)c1ccccc1 (stereo unspecified)
100 % of control

Here is the next compound: Cc1[nH]c2ccccc2c1C(Cc1ccccc1N)c1c(C)[nH]c2ccccc12
104 % of control

Here is the next compound: CC1(C)OC(=O)C(C#N)C1c1ccccc1 (stereo unspecified)
93 % of control

Here is the next compound: CCOC(=O)C(N)CS (stereo unspecified)
106 % of control

Here is the next compound: O=C1c2ccccc2C(=O)C1(Br)Br
97 % of control

Here is the next compound: CC(=O)OCC1OC(n2cnc3c(=S)nc(N)[nH]c32)C(OC(C)=O)C1OC(C)=O (stereo unspecified)
123 % of control

Here is the next compound: O=c1ccn(Cc2ccccc2)c(SCc2ccccc2)n1
109 % of control

Here is the next compound: Cn1c(=O)c2[nH]c(CCC3CCCC3)nc2n(C)c1=O
96 % of control

Here is the next compound: COc1cc(CN)cc(OC)c1OC
96 % of control

Here is the next compound: COC1OCC2OC(C)(C)OC2C1OS(C)(=O)=O (stereo unspecified)
107 % of control

###

Test system: L1210 leukemia ip in BDF1 mice, survival T/C
Test: NCI In Vivo Anticancer Drug Screen. Data for tumor model L1210 Leukemia (intraperitoneal) in B6D2F1 (BDF1) mice
Details: endpoint: mean survival time; dose: 12.5 mg/kg/injection; schedule: Q01DX009 (ip); vehicle: saline; higher = longer survival
Procedure: The antitumor activity of compounds was measured in mice bearing transplantable tumors. Survival or tumor size were measured and the results are expressed as the measurement made in the treated group (T) divided by the measurement made in the vehicle treated control group (C). The tumor model used in this assay is L1210 Leukemia (intraperitoneal) in B6D2F1 (BDF1) mice
Toxic doses and inconclusive results are not listed.
Hi there, I'd appreciate the recorded T/C for every entry that follows.

What value of T/C has been recorded for this entry: Nc1nc(N)c(-c2cccc(Cl)c2)c(CBr)n1
101 % of control

Here is the next molecule: COC(=O)C1=C(NC(=O)Nc2ccc(Cl)cc2)OC(C)(C)C1c1ccc(Cl)cc1 (stereo unspecified)
86 % of control

Here is the next molecule: CC#CC#C/C=C1/C=CC(=O)O1
105 % of control

Here is the next molecule: FC(F)(F)c1cccc(C(OCCN2CCCC2)c2ccccc2)c1 (stereo unspecified)
95 % of control

Here is the next molecule: CC(C)(C)C(=O)C=C(C(F)(F)F)C(F)(F)F
106 % of control

Here is the next molecule: CN(C)CCCCc1cn(-c2ccccc2)c2ccccc12
100 % of control

Here is the next molecule: CCCCCCCCc1ccc(NNC(N)=S)cc1
103 % of control

Here is the next molecule: CC[N+](CC)(CC)Cc1ccccc1 (tested in a mixture with another compound)
103 % of control

Here is the next molecule: OCCN1CCN(CCCN2c3ccccc3C=Cc3ccccc32)CC1
93 % of control

Here is the next molecule: CC(=O)C=O
98 % of control

Here is the next molecule: C=C(Br)CNC(C)=O
113 % of control

###

Hi there, I'd appreciate the recorded T/C for every entry that follows.
test system: L1210 leukemia ip in BDF1 mice, survival T/C; test: NCI In Vivo Anticancer Drug Screen. Data for tumor model L1210 Leukemia (intraperitoneal) in B6D2F1 (BDF1) mice; settings: endpoint: mean survival time; dose: 200.0 mg/kg/injection; schedule: Q01DX009 (ip); vehicle: other; higher = longer survival
Toxic doses and inconclusive results are not listed.

L1210 leukemia ip in BDF1 mice, survival T/C / T/C / CC(C(=O)O)N(Cc1ccccc1)S(C)(=O)=O (stereo not given) : value?
106 % of control

Here is the next compound: COc1cc(OC)c(Cl)c(OC)c1
103 % of control

Here is the next compound: O=C1OC(c2ccc([N+](=O)[O-])cc2)=N/C1=C\c1cccc([N+](=O)[O-])c1
100 % of control

Here is the next compound: C=CCCCCCCCCC(=O)N/N=C/c1ccc(NC(C)=O)cc1
89 % of control

Here is the next compound: C1CCC2(CC1)SC1(CCCCC1)SC1(CCCCC1)S2
95 % of control

###

test system: L1210 leukemia ip in BDF1 mice, survival T/C; experiment: NCI In Vivo Anticancer Drug Screen. Data for tumor model L1210 Leukemia (intraperitoneal) in B6D2F1 (BDF1) mice; details: endpoint: mean survival time; dose: 100.0 mg/kg/injection; schedule: Q01DX009 (ip); vehicle: saline with Tween-80; higher = longer survival
Inconclusive results and toxic doses are left out.
measured.property: T/C

What value of T/C has been recorded for this entry: COc1ccccc1OC(=O)Nc1cc([N+](=O)[O-])ccc1C
89 % of control

Here is the next molecule: COC1=CC(=O)C(C2CC(=O)c3c(O)cc(O)cc3O2)=CC1=O (stereo unspecified)
103 % of control

Here is the next molecule: O=C(O)/C=C\C(=O)NNC(=O)/C=C\C(=O)O
96 % of control

Here is the next molecule: c1ccc(-c2cc(-c3ccccc3)[s+]s2)cc1
90 % of control

Here is the next molecule: CC(C)(C)OC(=O)N1CCCC1C(=O)Oc1ccc([N+](=O)[O-])cc1 (stereo unspecified)
93 % of control

Here is the next molecule: O=C(Nc1ccc(Cl)cc1Cl)Oc1ccc(F)cc1
94 % of control

###

test system: L1210 leukemia ip in BDF1 mice, survival T/C; assay: NCI In Vivo Anticancer Drug Screen. Data for tumor model L1210 Leukemia (intraperitoneal) in B6D2F1 (BDF1) mice; conditions: endpoint: mean survival time; dose: 200.0 mg/kg/injection; schedule: Q01DX009 (ip); vehicle: acetone; higher = longer survival
Toxic doses and inconclusive results are not listed.
Hi there, I'd appreciate the recorded T/C for every entry that follows.

L1210 leukemia ip in BDF1 mice, survival T/C / T/C / Br/C=C/C1CCCCC1 : value?
123 % of control

Here is the next molecule: CCCCCCCCCCCC(=O)Nc1ccccc1C(F)(F)F
95 % of control

Here is the next molecule: CCCCOC(=O)CC(=O)OC
90 % of control

Here is the next molecule: O=[N+]([O-])c1cc(Cl)c(Cl)cc1NCCCO
97 % of control

###

test system: L1210 leukemia ip in BDF1 mice, survival T/C; assay: NCI In Vivo Anticancer Drug Screen. Data for tumor model L1210 Leukemia (intraperitoneal) in B6D2F1 (BDF1) mice; settings: endpoint: mean survival time; dose: 150.0 mg/kg/injection; schedule: Q04DX003 (ip); vehicle: saline; higher = longer survival
Toxic doses and inconclusive results are not listed.
Hi there, I'd appreciate the recorded T/C for every entry that follows.

What value of T/C has been recorded for this entry: CCOC(=O)CC[P+](c1ccccc1)(c1ccccc1)c1ccccc1
105 % of control

Here is the next compound: CCSc1ncnc2c1ncn2CN1CCOCC1
111 % of control

Here is the next compound: CC(CN=[N+]=[N-])OC(=O)C(F)(F)F (centres undefined)
106 % of control

Here is the next compound: COC(=O)NC1CC(OC(=O)c2ccc(C)cc2)C(COC(=O)c2ccc(C)cc2)O1 (centres undefined)
95 % of control
